Can you tell me LogP for the items I'm about to list?
run description: Measurement of LogP values by HPLC on reversed phase columns (EEC directive 79/831 Annex V.A8)
Assay type: physicochemical
Experimental: [table] If more than one Log P value is available within the same method, all the values are given and separated by “+”. Calibration was done with straight-chain alkan2-ones (with 3 to 16 carbon atoms) with known Log P values (measurement of Log P values using retention times with linear interpolation between successive alkanones). Lambda-max-values were determined using UV-spectra from 200 nm to 400 nm and the peak values of the chromatographic signals.
Marks after values point to notes of the source that are not given here.

# LogP (compound: `O=C(Cn1cncn1)c1ccc(Oc2ccc(Br)cc2)nc1C(F)F` ) is 2.68^[a]

# LogP (compound: `O=C(CCl)c1ccc(Oc2ccc(Cl)cc2)nc1Cl` ) is 3.72^[a]

# LogP (compound: `CC(=O)c1ccc(Oc2ccc(C(=O)Cn3cncn3)c(Cl)n2)cc1` ) is 1.96^[a]

# LogP (compound: OC(Cn1cncn1)c1cnc(Oc2ccc(Cl)cc2F)cc1C(F)(F)F (stereo not shown) ) is 2.86^[a]

# LogP (compound: `O=C(Cn1cncn1)c1cnc(Oc2ccc(Cl)cc2)cc1C(F)F` ) is 2.51^[a]

# LogP (compound: CC(O)(Cn1cncn1)c1cnc(Oc2ccc(Cl)cc2)cc1Cl (single isomer, unassigned) [I.54] ) is 2.53^[a]

# LogP (compound: OC(Cn1cncn1)c1ccc(Oc2ccc(C(F)F)cc2)nc1C(F)(F)F (stereo not shown) ) is 2.49^[a]

# LogP (compound: FC(F)(F)c1ccc(Oc2ccc(C3(C4CC4)CO3)c(C(F)(F)F)n2)cc1 (stereo not shown) ) is 5.00^[a]

# LogP (compound: CC(O)(Cn1cncn1)c1ccc(Oc2ccc(Cl)cc2)nc1OC(F)(F)F (racemic) ) is 3.29^[a]

# LogP (compound: CC(O)(Cn1cncn1)c1cnc(Oc2ccc(S(F)(F)(F)(F)F)cc2)cc1C(F)(F)F (stereo not shown) ) is 3.33^[a]

# LogP (compound: `O=C(Cn1cncn1)c1ccc(Oc2ccc(Br)cc2)nc1C(F)(F)F` ) is 2.99^[a]

# LogP (compound: `CC(=O)c1ccc(Oc2ccc(OC(F)(F)F)cc2)nc1Cl` ) is 3.89^[a]

# LogP (compound: CC(O)(Cn1cncn1)c1cnc(Oc2ccc(Br)cc2)cc1C(F)F (stereo not shown) ) is 2.78^[a]

# LogP (compound: `O=C(Cn1cncn1)c1ccc(Oc2ccc(OC(F)(F)F)cc2)nc1Cl` ) is 2.95^[a]

# LogP (compound: CC(O)(Cn1cncn1)c1ccc(Oc2ccc(Cl)cc2F)nc1C(F)(F)F (stereo not shown) [I.66] ) is 2.80^[a]

# LogP (compound: OC(Cn1cncn1)c1ccc(Oc2ccc(Br)cc2)nc1C(F)F (stereo not shown) ) is 2.50^[a]

# LogP (compound: `O=C(CCl)c1ccc(Oc2ccc(Br)cc2)nc1C(F)(F)F` ) is 4.11^[a]

# LogP (compound: `O=C(Cn1cncn1)c1ccc(Oc2ccc(C(F)F)cc2)nc1Cl` ) is 2.39^[a]

# LogP (compound: `CC(=O)c1ccc(Oc2ccc(S(F)(F)(F)(F)F)cc2)nc1C(F)(F)F` ) is 4.09^[a]

# LogP (compound: `COc1ccc(Oc2ccc(C(=O)CCl)c(Cl)n2)c(Cl)c1` ) is 3.71^[a]

# LogP (compound: `O=C(Cn1cncn1)c1ccc(Oc2cc(F)c(F)c(F)c2)nc1Cl` ) is 2.66^[a]

# LogP (compound: `CC(=O)c1ncc(Oc2ccc(Cl)cc2)nc1Cl` ) is 3.51^[a]

----------
Can you tell me LogP for the items I'm about to list?
run description: Measurement of LogP values by HPLC on reversed phase columns (EEC directive 79/831 Annex V.A8)
Assay type: physicochemical
Marks after values point to notes of the source that are not given here.

# LogP (molecule: OC(Cn1cncn1)(c1ccc(Oc2ccc(Cl)cc2)nc1C(F)(F)F)C1CC1 (stereo not shown) [I.80] ) is 3.32^[a]

# LogP (molecule: `O=C(CCl)c1ccc(Oc2ccc(Cl)cc2)nc1F` ) is 3.69^[a]

# LogP (molecule: CC(O)(Cn1cncn1)c1cnc(Oc2ccc(Cl)cc2)cc1C(F)(F)F (single isomer, unassigned) ) is 2.93^[a]

# LogP (molecule: `O=C(Cn1cncn1)c1ccc(Oc2ccc(Cl)cc2Cl)nc1Cl` ) is 3.02^[a]
